- TEST SUMMARY: compound effects on lung adenocarcinoma cell viability – A549, calcein-AM fluorescence, 48 h, basal, profiling panel (AID 1162); also: test concentration not given here
- ASSAY CONTEXT: higher = more signal
MEASURE: z-score

// worked examples, z-score included
>>> result("CCN(CC)c1ccc(N2CC=CC34O[C@@H]5C=CCCOC(=O)C5[C@H]3C(=O)N(C(C)CO)[C@@H]4C2=O)cc1 (stereo partly drawn)")
-0.0735
>>> result("CC1CC/C=C\\[C@H]2OC34C=CCN(c5ccc6ccccc6c5)C(=O)[C@H]3N(C(C)CO)C(=O)[C@@H]4C2C(=O)O1 (stereo partly drawn)")
-0.326
>>> result("COc1ccc([Si](C)(C)[C@H]2[C@H](CCO)O[C@@]3(C(=O)N(Cc4cccc(N5C(=O)c6ccccc6Oc6ccccc65)c4)c4ccccc43)[C@@H]2C)cc1")
-1.24
>>> result("CCCCCCc1nc(Cc2cc(OC)c(OC)c(OC)c2)cc2c1[Si](C(C)C)(C(C)C)O[C@H]2c1ccccc1")
-0.106

Please look at the following compound next.
Consider the compound shown here: C[N+](C)(C)CCCC[C@@H]1NC(=O)[C@H]2C[C@@H](C(=O)NCCCCCNC(=O)CS)[C@@H](c3cccc(OCCO)c3)N2C1=O What is its recorded z-score? 0.316

---

- TEST SUMMARY: basal CRE-LacZ reporter activity in PC12 – cell-based, unstimulated, primary screen (AID 1145)
- ASSAY CONTEXT: no forskolin, luminescence, 4.5 h, higher = more signal, called active from +8 up or from −8 down
MEASURE: z-score
Number only, please.

// worked examples, z-score included
>>> numeric_readout("CCCCN1CC=CC23O[C@@H]4/C=C\\CCCOC(=O)C4[C@H]2C(=O)N(C(CO)C(C)C)[C@@H]3C1=O (some centres not stated)")
-0.22
>>> numeric_readout("O=C(NCc1ccccc1)[C@@H]1c2ccccc2C(=O)N(Cc2cc(C(F)(F)F)cc(C(F)(F)F)c2)[C@H]1c1ccc(CO)cc1")
0.0387
>>> numeric_readout("COC(=O)C(CC#Cc1ccc2c(c1)[C@]1(C(=O)N2)[C@H](C(=O)N2CCc3cc(OC)c(OC)cc3C2)[C@H]2C(=O)O[C@H](c3ccccc3)[C@H](c3ccccc3)N2[C@@H]1c1ccccc1OCCO)C(=O)OC")
-0.168
>>> numeric_readout("CC(C)C(=C=CC[C@H](O)c1ccccc1OCCO)C[C@H](O)c1cc(Cl)cc(Cl)c1O")
14.6

Consider the molecule shown here: C=CCOC(=O)[C@@H]1[C@H]2C(=O)O[C@H](c3ccccc3)[C@H](c3ccccc3)N2[C@H](c2ccc(OCCOC(=O)[C@H]3C[C@H]4C(=O)NCC(=O)N4[C@H]3c3cccc(OCCO)c3)cc2)[C@@]12C(=O)Nc1ccc(I)cc12 What is its recorded z-score? -0.264

Consider the molecule shown here: CC(C)N1C(=O)C[C@@](C(=O)NCCN2CCOCC2)(c2ccc([N+](=O)[O-])cc2)[C@H]1c1ccc(CO)cc1 What is its recorded z-score? -0.295

Consider the molecule shown here: COc1ccccc1CN1C(=O)c2ccccc2[C@](Cc2ccccc2I)(C(=O)NCC(C)C)[C@@H]1c1ccc(CO)cc1 What is its recorded z-score? 0.0279

---

- SYSTEM: Calmodulin-1 (Homo sapiens)
- TEST SUMMARY: small molecules binding calmodulin-1 with EGTA – biochemical, small-molecule microarray, Cy5-labelled CALM1, profiling panel (AID 1111);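 also: labelled calmodulin applied in Tris saline Tween buffer holding calcium plus EGTA and DTT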
- ASSAY CONTEXT: Cy5-CALM1 binding fluorescence, higher = more signal
MEASURE: composite z-score
Number only, please.

Consider the compound shown here: COc1ccc(CCNC(=O)[C@@H]2c3ccccc3C(=O)N(Cc3ccccc3OC)[C@H]2c2ccc(CO)cc2)cc1 What is its recorded composite z-score? 0.527

Consider the compound shown here: COCCOC(=O)N1C(=O)[C@@]2(c3cc(C#CCC(C(=O)OC)C(=O)OC)ccc31)[C@H](C(=O)Nc1nc3ccccc3s1)[C@H]1C(=O)O[C@H](c3ccccc3)[C@H](c3ccccc3)N1[C@@H]2c1ccc(OCCO)cc1 What is its recorded composite z-score? 1.34

Consider the compound shown here: COc1ccc([Si](C)(C)[C@@H]2[C@@H](CC(=O)N3Cc4ccccc4C[C@H]3CO)O[C@]3(C(=O)N(Cc4ccc(N5CCOC5=O)cc4)c4ccccc43)[C@H]2C)cc1 What is its recorded composite z-score? -0.422

This collection of values is drawn from PubChem BioAssay.
